procedureText: Estimated human Cmax of myricetin by conversion from rats
experimentalParameters: human, oral, 564 mg
measuredProperty: Cmax

Cmax reported for this molecule O=c1c(O)c(-c2cc(O)c(O)c(O)c2)oc2cc(O)cc(O)c12 : ~2500 nM
